This collection of values is drawn from patent US20050182252A1.

Structures can show the parent of a compound that is named as a salt.
measured endpoint: melting point

{"molecule": "C[C@@]1(O)[C@H](O)[C@@H](COP2(=O)OCC[C@H](c3cc(Cl)cc(Cl)c3)O2)O[C@H]1n1ccc2c(N)ncnc21 (stereo partly shown)", "measured endpoint": "melting point", "test value": "182 to 185 °C"}
{"molecule": "C[C@@]1(O)[C@H](O)[C@@H](COP2(=O)OCC[C@H](c3cccc(C(F)(F)F)c3)O2)O[C@H]1n1ccc2c(=O)[nH]c(N)nc21 (stereo partly shown)", "measured endpoint": "melting point", "test value": "145 to 165 °C"}
{"molecule": "CO[C@H]1COP(=O)(OC[C@H]2O[C@@H](n3ccc4c(N)ncnc43)[C@](C)(O)[C@@H]2O)O[C@@H]1c1cccc(Cl)c1 (stereo partly shown) (as salt: trifluoroacetic acid salt)", "measured endpoint": "melting point", "test value": "140 to 143 °C"}
{"molecule": "C[C@@]1(O)[C@H](O)[C@@H](COP2(=O)OCC[C@@H](c3cc(F)cc(F)c3)O2)O[C@H]1n1cnc2c(N)ncnc21 (stereo partly shown)", "measured endpoint": "melting point", "test value": "120 to 123 °C"}
